- Tested on: FAK
- Construct: gene PTK2
- Setup Conditions: concentration: 1 μM, replicates: in singlicate; n = 1;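 note: KINOMEscan kinase panel screen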
List of %Inh values.
Lab book: enter the figure in %, no units written.

For orientation, consider the following solved cases.
Nc1nc(-c2ccccc2F)c(-c2ccnc3ccccc23)s1: 0
COc1cccc(C2=C(N(C)c3ccccc3)C(=O)NC2=O)c1: 0
Nc1ncnc2c1ncn2-c1ccc(Cl)cc1: 0

Query :: // fetch %Inh given entry O=c1cc(N2CCOCC2)nc2n(Cc3ccc(F)c(Cl)c3)ccn12
Result :: 0

Query :: // fetch %Inh given entry CCC(=O)c1c(-c2ccccc2)c2cc(Cl)ccc2c(=O)n1Cc1cc(S(C)(=O)=O)n(CC(F)F)n1
Result :: 0

Query :: // fetch %Inh given entry COc1cc2ncn(-c3cc(OCc4ccncc4Br)c(C(N)=O)s3)c2cc1OC
Result :: 0

Query :: // fetch %Inh given entry Nc1ncnc2c1ncn2-c1cccc2ccccc12
Result :: 0

Query :: // fetch %Inh given entry COc1cccc(C2=C(Nc3cccc(C(=O)O)c3)C(=O)NC2=O)c1
Result :: 3

Query :: // fetch %Inh given entry Cc1ccccc1COc1cc(-n2cnc3cc(Cl)ccc32)sc1C(N)=O
Result :: 5

Query :: // fetch %Inh given entry COc1cccc(-n2cnc3c(N)ncnc32)c1
Result :: 4

* * *

- Tested on: BIKE
- Construct: gene BMP2K
- Setup Conditions: concentration: 1 μM, replicates: in singlicate; n = 1
Assign class by %Inh: not lower than 20% means T; lower than 20% means F.

Consider the following illustrative entries.
O=C(Nc1n[nH]c2nc(-c3ccccc3)c(Cl)cc12)C1CC1: T
Nc1ncnc2c1ncn2-c1ccc(Cl)cc1: T
O=C(Nc1n[nH]c2cc(-c3ccccc3F)ccc12)C1CC1: T
CN(C)c1cc(-c2ccc3c(N)n[nH]c3c2)nc(N)n1: T

Proceed to the following item.
Query :: In plain terms: is recorded %Inh at least 20% for COC(=O)c1c(-c2ccccc2)c2cc(Br)ccc2c(=O)n1Cc1ccc(S(C)(=O)=O)cc1 ?
Result :: F

* * *

- System: YANK2
- Construct: gene STK32B
- Setup Conditions: concentration: 1 μM, replicates: in singlicate; n = 1
List of %Inh values.
Lab book: enter the figure in %, no units written.

CCCC(=O)Nc1n[nH]c2ncc(-c3cccc4ccccc34)cc12 [SB-642057]: 6

Query :: Look up and report measured %Inh (YANK2) for the following compound: COC(=O)c1c(-c2ccccc2)c2cc(Br)ccc2c(=O)n1Cc1ccc(S(C)(=O)=O)cc1
Result :: 6

Query :: Look up and report measured %Inh (YANK2) for the following compound: Fc1cccc(CSc2nnc(-c3ccc4c(c3)CCO4)o2)c1
Result :: 12

* * *

- Tested on: ICK
- Setup Conditions: concentration: 1 μM, replicates: in singlicate; n = 1
List of %Inh values.
Lab book: enter the figure in %, no units written.

For orientation, consider the following solved cases.
O=C(NCc1cccs1)c1cc(C(=O)c2c(Cl)cccc2Cl)c[nH]1 [GW823670]: 0
Fc1cccc(CSc2nnc(-c3ccc4c(c3)CCO4)o2)c1: 0
CCC(=O)c1c(-c2ccccc2)c2cc(Cl)ccc2c(=O)n1Cc1cc(S(C)(=O)=O)n(CCC(C)(C)O)n1: 0
COc1cc(OC)cc(-c2cc3cnc(N)nc3nc2NC(=O)NC(C)(C)C)c1: 0

// next item, %Inh requested
Query :: Look up and report measured %Inh (ICK) for the following compound: COc1cc2ncn(-c3cc(OCc4ccncc4)c(C(N)=O)s3)c2cc1OC [GSK336313]
Result :: 4
